# maps each entry to its KD
- System name: T1, human transferrin receptor (hTfR) (human, UniProt P02786 89-760)
- T1 construct: used as 0.5 uM hTfR dimer solution, immobilised on an NTA sensor chip (Ni capture plus EDC/NHS coupling); also called human TfR; TfR1
- T1 sequence (P02786 89-760 limits assumed): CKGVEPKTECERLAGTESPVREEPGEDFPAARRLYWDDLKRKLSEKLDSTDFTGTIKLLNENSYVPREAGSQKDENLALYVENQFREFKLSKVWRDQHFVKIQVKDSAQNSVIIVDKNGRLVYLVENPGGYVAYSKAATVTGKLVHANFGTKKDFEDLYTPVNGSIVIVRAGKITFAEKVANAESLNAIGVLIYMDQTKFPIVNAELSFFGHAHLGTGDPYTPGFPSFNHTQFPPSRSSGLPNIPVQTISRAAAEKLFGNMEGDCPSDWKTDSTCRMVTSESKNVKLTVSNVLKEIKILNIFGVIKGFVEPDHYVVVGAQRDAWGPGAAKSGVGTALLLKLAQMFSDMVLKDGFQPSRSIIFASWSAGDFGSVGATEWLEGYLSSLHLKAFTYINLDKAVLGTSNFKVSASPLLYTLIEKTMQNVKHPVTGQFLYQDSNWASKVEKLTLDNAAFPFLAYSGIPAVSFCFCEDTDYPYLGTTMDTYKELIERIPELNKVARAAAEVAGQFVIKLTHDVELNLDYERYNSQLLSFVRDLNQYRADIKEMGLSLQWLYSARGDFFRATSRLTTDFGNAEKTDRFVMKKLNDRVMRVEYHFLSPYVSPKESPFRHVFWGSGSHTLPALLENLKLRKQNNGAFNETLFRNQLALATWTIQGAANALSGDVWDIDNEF
- Assay info: SPR; B = KD 1-100 nM
Starred links: 1 amine or outer side, 2 acyl side, 3 side chain; linkers in the order of their positions; H or OH if unused. Positions of bridges follow the written chain, without caps; N, C: chain ends. Non-standard residues stand in square brackets, D forms with d. Primed or numbered codes have the meaning given here. No end group written: not given here. *: point of attachment. E(PEG8Me) = (S)-30-amino-27-oxo-2,5,8,11,14,17,20,23-octaoxa-26-azahentriacontane-31-oic acid, COCCOCCOCCOCCOCCOCCOCCOCCNC(=O)CC[C@H](N[*:1])C(=O)[*:2]; E(PEG4Me) = (S)-18-amino-15-oxo-2,5,8,11-tetraoxa-14-azanonadecane-19-oic acid, COCCOCCOCCOCCNC(=O)CC[C@H](N[*:1])C(=O)[*:2]; KCOpipzaa = N6-(4-(carboxymethyl)piperazine-1-carbonyl)-L-lysine, O=C(NCCCC[C@H](N[*:1])C(=O)[*:2])N1CCN(CC(=O)[*:3])CC1; Phe(4-OMe)(3) = (S)-2-amino-3-(4-methoxyphenyl)propanoic acid (source code F4OMe), COc1ccc(C[C@H](N[*:1])C(=O)[*:2])cc1; F4aao = (S)-2-amino-3-(4-(carboxymethoxy)phenyl)propanoic acid, O=C([C@H](Cc1ccc(OCC(=O)[*:3])cc1)N[*:1])[*:2]; MePEG4c = K(MePEG4c) = (S)-20-amino-14-oxo-2,5,8,11-tetraoxa-15-azahenicosane-21-oic acid, COCCOCCOCCOCCC(=O)*; Phe(4-OMe) = F4OMe = (S)-2-amino-3-(4-methoxyphenyl)propanoic acid, COc1ccc(C[C@H](N[*:1])C(=O)[*:2])cc1; Trp(1-CH2CO) = O=C([C@H](Cc1cn(CC(=O)[*:3])c2ccccc12)N[*:1])[*:2]; Phe(3-COOH) = N[C@@H](Cc1cccc(C(=O)O)c1)C(=O)O; Trp(7-aza) = N[C@@H](Cc1c[nH]c2ncccc12)C(=O)O; NH(CH2CH2O)8Me = COCCOCCOCCOCCOCCOCCOCCOCCN*; NMePhe(3-Cl) = CN[C@@H](Cc1cccc(Cl)c1)C(=O)O; NMePhe(4-F) = CN[C@@H](Cc1ccc(F)cc1)C(=O)O; 3Pal(6-NH2) = Nc1ccc(C[C@H](N)C(=O)O)cn1; NMeW = CN[C@@H](Cc1c[nH]c2ccccc12)C(=O)O; NMeY = CN[C@@H](Cc1ccc(O)cc1)C(=O)O; NMeR = CN[C@@H](CCCNC(=N)N)C(=O)O; NMeF = CN[C@@H](Cc1ccccc1)C(=O)O; 3Pal = N[C@@H](Cc1cccnc1)C(=O)O; 4Pal = N[C@@H](Cc1ccncc1)C(=O)O

>  <Binder>
{CH2CO}-AV[NMePhe(3-Cl)]V[Trp(1-CH2CO)]NY[3Pal]IIRE(NH(CH2CH2O)8Me)[Phe(3-COOH)][NMeY]C-NH2 (thioether N-15; also: linker PEG4c) [894_0352]

>  <KD>
1 to 100 nM

$$$$
>  <Binder>
{CH2CO}-AV[NMePhe(3-Cl)]VWNY[Phe(4-OMe)(3)]IIRRF[NMeY]C (thioether N-15; not fully specified (C-terminus)) [894_3149]

>  <KD>
1 to 100 nM

$$$$
>  <Binder>
{CH2CO}-AV[NMeF]VWNY[F4aao]IIRRY[NMeY]C-NH2 (thioether N-15; also: linker G-de-de-de-ds-ds-KN3, attachment not given here) [894_3169]

>  <KD>
1 to 100 nM

$$$$
>  <Binder>
{CH2CO}-AV[NMePhe(3-Cl)]V[Trp(7-aza)]NY[F4aao]IIERFYC-NH2 (thioether N-15; not fully specified (residues 11, 14); also: linker PEG4c, place not given here) [849_0418]

>  <KD>
1 to 100 nM

$$$$
>  <Binder>
{CH2CO}-AV[NMeF]VWNY[Phe(4-OMe)]II[NMeR]RFYC-NH2 (thioether N-15; not fully specified (residue 14); also: linker PEG4c) [894_0285]

>  <KD>
1 to 100 nM

$$$$
>  <Binder>
{CH2CO}-AV[NMeF]VWNYYIIRK(MePEG4c)FYC-NH2 (thioether N-15; not fully specified (residue 14)) [894_0264]

>  <KD>
1 to 100 nM

$$$$
>  <Binder>
Ac-AV[NMePhe(3-Cl)]V[Trp(1-CH2CO)]N[3Pal(6-NH2)][3Pal]IIRR[Phe(3-COOH)][NMeY]C (thioether (positions not given here); not fully specified (C-terminus, bridges)) [894_0347]

>  <KD>
1 to 100 nM

$$$$
>  <Binder>
{CH2CO}-AV[NMePhe(3-Cl)]V[Trp(1-CH2CO)]NY[F4aao]IIRRFYC-NH2 (thioether N-15; not fully specified (residue 14); also: linker PEG4c) [894_0295]

>  <KD>
1 to 100 nM

$$$$
>  <Binder>
{CH2CO}-AV[NMePhe(4-F)]V[NMeW]NY[Phe(4-OMe)]II[NMeR][dR]FYC-NH2 (thioether N-15; not fully specified (residue 14); also: linker PEG4c, place not given here) [894_0262]

>  <KD>
1 to 100 nM

$$$$
>  <Binder>
{CH2CO}-AV[NMePhe(3-Cl)]V[Trp(1-CH2CO)]NY[3Pal]IIRR[4Pal][NMeY]C (thioether N-15; not fully specified (C-terminus)) [894_0306]

>  <KD>
1 to 100 nM

$$$$
>  <Binder>
{CH2CO}-AV[NMePhe(3-Cl)]V[Trp(1-CH2CO)]NY[F4aao]IIRQF[NMeY]C (thioether N-15; not fully specified (C-terminus)) [894_0303]

>  <KD>
1 to 100 nM

$$$$
>  <Binder>
{CH2CO}-AV[NMeF]VWNYYIIR[dR]FYC-NH2 (thioether N-15; not fully specified (residue 14); also: linker PEG4c) [894_0282]

>  <KD>
1 to 100 nM

$$$$
>  <Binder>
{CH2CO}-AV[NMePhe(3-Cl)]VWNY[F4aao]II[E(PEG4Me)][KCOpipzaa]F[NMeY]C-NH2 (thioether N-15; also: linker PEG4c, place not given here) [849_0401]

>  <KD>
1 to 100 nM

$$$$
>  <Binder>
{CH2CO}-AV[NMePhe(3-Cl)]VWN[3Pal(6-NH2)][F4aao]IIR[E(PEG8Me)][Phe(3-COOH)][NMeY]C-NH2 (thioether N-15; also: linker PEG4c, place not given here) [894_0376]

>  <KD>
1 to 100 nM

$$$$
>  <Binder>
{CH2CO}-AV[NMePhe(3-Cl)]VWNY[F4aao]IIR[E(PEG8Me)][4Pal]YC-NH2 (thioether N-15; not fully specified (residue 14); also: linker PEG4c, place not given here) [894_0373]

>  <KD>
1 to 100 nM

$$$$

The values you see were collected from patent US20260116920A1.
